# target.of.assay: Beta-lactamase VIM-2 (Pseudomonas aeruginosa)
reported.metric: Ki (µM)

>  <smiles.data>
CC/C(C(=O)O)=C(\CC)C(=O)O

>  <target.of.assay>
Beta-lactamase VIM-2 (Pseudomonas aeruginosa)

>  <reported.measurement>
120

$$$$
